# STUDY_TARGET: PAK4 kinase activity in whole cells (TR-293-KDG, modified HEK 293) (Homo sapiens)
# Construct: engineered to overexpress both GEF-H1b and the kinase domain (KD) of PAK4
# Sequence (O96013 321-572 limits assumed): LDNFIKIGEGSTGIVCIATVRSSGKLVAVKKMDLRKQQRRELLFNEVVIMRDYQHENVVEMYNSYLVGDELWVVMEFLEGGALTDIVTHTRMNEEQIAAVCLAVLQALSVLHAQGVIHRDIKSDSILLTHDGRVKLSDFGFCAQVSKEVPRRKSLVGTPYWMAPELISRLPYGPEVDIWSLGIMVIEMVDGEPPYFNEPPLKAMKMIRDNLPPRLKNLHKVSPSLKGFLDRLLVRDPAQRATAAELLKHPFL
# PROTOCOL: PAK4 cellular assay: sandwich ELISA of PAK4-dependent phosphorylation of GEF-H1b in TR-293-KDG cells
# PARTICULARS: 3-hour exposure
ENDPOINT_NAME: EC50
Record the result as number plus unit.

Guide cases for EC50, answers given:
* CN(C)CC(OC(=O)N1Cc2c(NC(=O)c3ccc(F)cc3)n[nH]c2C1(C)C)c1ccccc1 (centres unmarked) | 14.8 nM
* CN(C)C[C@@H](NC(=O)N1Cc2c(NC(=O)Cc3ccc(F)cc3)n[nH]c2C1(C)C)c1ccccc1 | 353 nM
* CN(C)C[C@@H](OC(=O)N1Cc2c(NC(=O)c3ccccc3F)n[nH]c2C1(C)C)c1ccccc1 | 50 nM

Lab note: `CN(C)C[C@@H](NC(=O)N1Cc2c(NC(=O)c3ccccn3)n[nH]c2C1(C)C)c1ccccc1` gave EC50 of 20.3 nM

Field EC50 (entry `CN(C)C[C@@H](NC(=O)N1Cc2c(NC(=O)c3cccs3)n[nH]c2C1(C)C)c1ccccc1` ) reads 16 nM

---

# STUDY_TARGET: PAK4 Kinase domain (PAK4 KD) (Homo sapiens, UniProt O96013)
# Construct: Cloning, expression, and purification of recombinant PAK4 Kinase domain (PAK4 KD); His tag (pET28a(+)/pET24a(+), Ni-NTA purification) (N, cleaved yes); GST (pGST4.5, glutathione column) (N, cleaved yes)
# Sequence (O96013 321-572 limits assumed): as above
# PROTOCOL: PAK4 kinase domain enzymatic assay (PK/LDH-coupled, Ki)
# PARTICULARS: PAK4 Kinase Domain
pKi: −log10 of the molar value.
# pKi >= 7 gives Fulfilled, anything below gives Not fulfilled

Would you please look over these solved cases?
* CN(C)C[C@@H](OC(=O)N1Cc2c(NC(=O)[C@@H]3CCCO3)n[nH]c2C1(C)C)c1ccccc1 | Not fulfilled
* CC1(C)c2[nH]nc(NC(=O)c3ccc(F)cc3)c2CN1C(=O)NC(CN1CCOCC1)c1ccccc1 (stereo not drawn) | Not fulfilled
* CN(C)C[C@@H](NC(=O)N1Cc2c(NC(=O)[C@@H]3C[C@H]3c3ccccc3)n[nH]c2C1(C)C)c1ccccc1 | Fulfilled
* CC1(C)c2[nH]nc(NC(=O)c3ccccc3)c2CN1C(=O)NC1CCN(Cc2ccccc2)C1 (stereo not drawn) | Not fulfilled
* CN(C)C[C@@H](OC(=O)N1Cc2c(NC(=O)c3ccccc3F)n[nH]c2C1(C)C)c1ccccc1 | Fulfilled

### Prompt Could you verify whether the entry CN(C)CC(OC(=O)N1Cc2c(NC(=O)c3ccc(F)cc3)n[nH]c2C1(C)C)c1ccc(F)cc1 (stereo not drawn) shows pKi of no less than 7?
### Response Fulfilled

### Prompt Would you say `COc1ccc(CC(=O)Nc2n[nH]c3c2CN(C(=O)O[C@H](CN(C)C)c2ccccn2)C3(C)C)cc1` shows pKi at minimum 7?
### Response Fulfilled

### Prompt Could you tell me if the measured pKi of `CC(C)C[C@@H](CN(C)C)OC(=O)N1Cc2c(NC(=O)c3ccccc3F)n[nH]c2C1(C)C` reaches 7 or more?
### Response Not fulfilled

### Prompt Is pKi at least 7? Consider `CC[C@@H](NC(=O)N1Cc2c(NC(=O)c3ccccc3)n[nH]c2C1(C)C)c1ccccc1`
### Response Not fulfilled

### Prompt Please tell me: is the compound CN(C)CC(CC(=O)N1Cc2c(NC(=O)c3ccc(F)cc3)n[nH]c2C1(C)C)c1ccccc1 (stereo not drawn) at or over 7 in terms of pKi?
### Response Not fulfilled
